The entries below are paired with their reported Ki.
# systemUnderTest: CCR1 (Homo sapiens)
# Sequence (P32246 whole entry): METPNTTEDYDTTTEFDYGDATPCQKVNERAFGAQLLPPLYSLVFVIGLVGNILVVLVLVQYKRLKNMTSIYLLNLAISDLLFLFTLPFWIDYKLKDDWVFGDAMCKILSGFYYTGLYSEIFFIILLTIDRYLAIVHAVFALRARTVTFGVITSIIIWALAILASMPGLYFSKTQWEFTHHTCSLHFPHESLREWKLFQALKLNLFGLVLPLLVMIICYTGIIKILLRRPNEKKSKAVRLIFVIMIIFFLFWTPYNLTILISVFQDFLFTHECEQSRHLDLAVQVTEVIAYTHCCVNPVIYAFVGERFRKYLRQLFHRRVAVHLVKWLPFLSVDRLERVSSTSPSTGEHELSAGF
# assayInfo: Membrane-based NanoBRET competition assay with 12 (2000 nM) and CCR1_Nluc membranes
# Assay type: binding
# Set-up: Promega pNLF1-C (Nluc) #CCR010TN00; host or cells: HEK293T, transient (PEI)
# conditions: 12 (2000 nM), CCR1_Nluc membranes; read-out: Ki, CCR1 (converted)
observedProperty: Ki (µM)

INSERT INTO measurements (compound, numericvalue) VALUES
  ('O=C(C1=C(O)C(=O)N(Cc2ccc(O)cc2)C1c1ccc(F)cc1)c1ccccc1 (stereo not shown)', 0.13),
  ('O=C(C1=C(O)C(=O)N(CCc2cccc(O)c2)C1c1ccc(F)cc1)c1ccccc1 (stereo not shown)', 0.184),
  ('O=C(C1=C(O)C(=O)N(CCc2ccc(O)cc2)C1c1cccc(Br)c1)c1ccccc1 (stereo not shown)', 0.195),
  ('O=C(C1=C(O)C(=O)N(CCc2ccc(O)cc2)C1c1ccc(F)cc1)c1ccccc1 (racemic) [compound 23]', 0.1),
  ('O=C(C1=C(O)C(=O)N(CCc2ccc(O)cc2)C1c1ccc(F)cc1)c1ccccc1 (single isomer, unassigned; (-)) [(-)-23]', 0.216),
  ('O=C(C1=C(O)C(=O)N(CCc2ccc(O)cc2)C1C1CCCCC1)c1ccccc1 (stereo not shown)', 0.231),
  ('O=C(C1=C(O)C(=O)N(CCc2ccc(O)cc2)C1c1ccc(Cl)cc1)c1ccccc1 (stereo not shown)', 0.2);

Value source: paper PMC11249626
